# Assay Target: PRMT5-MEP50 complex (full-length, purified) (human | , UniProt O14744 1-637; Q9BQA1 1-342)
# Sequence (O14744 whole entry, chain 1 of 2): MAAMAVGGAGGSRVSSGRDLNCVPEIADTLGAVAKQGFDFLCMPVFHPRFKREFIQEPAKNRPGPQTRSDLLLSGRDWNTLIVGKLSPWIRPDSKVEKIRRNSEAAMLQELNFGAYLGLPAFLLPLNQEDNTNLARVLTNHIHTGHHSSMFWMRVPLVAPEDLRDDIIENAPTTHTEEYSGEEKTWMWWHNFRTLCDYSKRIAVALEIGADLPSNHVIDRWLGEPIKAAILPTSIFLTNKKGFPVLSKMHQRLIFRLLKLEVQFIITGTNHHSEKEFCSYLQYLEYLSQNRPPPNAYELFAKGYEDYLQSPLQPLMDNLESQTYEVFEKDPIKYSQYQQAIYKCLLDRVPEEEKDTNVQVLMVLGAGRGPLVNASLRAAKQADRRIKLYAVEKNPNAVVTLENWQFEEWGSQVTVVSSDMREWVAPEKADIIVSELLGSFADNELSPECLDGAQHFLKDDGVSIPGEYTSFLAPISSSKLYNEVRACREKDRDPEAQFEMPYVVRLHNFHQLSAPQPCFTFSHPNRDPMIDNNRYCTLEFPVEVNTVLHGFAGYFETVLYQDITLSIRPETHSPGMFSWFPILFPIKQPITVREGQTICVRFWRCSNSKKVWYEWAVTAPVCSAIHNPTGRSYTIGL
# Sequence (Q9BQA1 whole entry, chain 2 of 2): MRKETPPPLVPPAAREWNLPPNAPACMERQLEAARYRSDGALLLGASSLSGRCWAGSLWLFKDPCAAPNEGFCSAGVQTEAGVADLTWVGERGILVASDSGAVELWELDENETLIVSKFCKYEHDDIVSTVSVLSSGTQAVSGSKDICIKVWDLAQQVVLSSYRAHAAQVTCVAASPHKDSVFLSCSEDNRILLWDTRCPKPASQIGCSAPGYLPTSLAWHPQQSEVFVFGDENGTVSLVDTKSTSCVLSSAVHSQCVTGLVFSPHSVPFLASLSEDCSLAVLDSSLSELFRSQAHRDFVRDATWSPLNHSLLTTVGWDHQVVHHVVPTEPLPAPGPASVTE
# Protocol Notes: FP
Square brackets hold non-standard residues; d marks the D form. Ends that are not written are not given here.
Measured Metric: pKi
Would you please state pKi, meaning minus log10 of the concentration in mol/L, as a bare number?

Recorded pKi, per entry:
1. SRVVPGQFDDADSSD (unlabeled; taken as the same span as the printed RioK1 tracer sequence (7BOC entity 2); end groups are in the figure/SI) [peptide 4 (native RioK1 PBM sequence, unlabeled reference)]
5.74
2. SRVVP[dA]QF[dA]DADSSD [peptide 3 (RioK1 PBM with D-Ala at 14 and 17)]
4.19

Requested field: pKi. Item: SRVVPGQF[dA]DADSSD [peptide 2 (RioK1 PBM with D-Ala)]
5.35

Note, next up: SRVVP[dA]QFDDADSSD [peptide 1 (RioK1 PBM with D-Ala)]
5.29
